# Target: Gal-8N (Homo sapiens, UniProt O00214)
# Construct: consisting of residues 4-158 was produced by Lund Protein Production Platform; made in house; host or cells: E. coli TUNER(DE3)
# Sequence (O00214 4-158): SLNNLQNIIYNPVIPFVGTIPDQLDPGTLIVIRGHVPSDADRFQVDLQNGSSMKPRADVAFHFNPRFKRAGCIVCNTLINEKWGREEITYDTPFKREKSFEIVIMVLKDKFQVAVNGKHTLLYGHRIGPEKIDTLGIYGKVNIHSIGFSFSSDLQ
# Assay Method Text: ligand efficiency (LE) and ligand-lipophilicity efficiency (LLE) calculations
# Settings: from Gal-8N Kd and clogP

{"columns": ["Compound", "LLE"],
 "data": [
  ["COC(=O)c1cccc(-n2cc(CO[C@@H]3[C@@H](OCc4nc5ccc(C(=O)O)cc5n4C)[C@@H](O)[C@@H](CO)O[C@@H]3Sc3ccc(Cl)c(Cl)c3)nn2)c1 [Compound 15b]", 0.0722],
  ["COC(=O)c1ccccc1-n1cc(CO[C@@H]2[C@@H](OCc3nc4ccc(C(=O)O)cc4n3C)[C@@H](O)[C@@H](CO)O[C@@H]2Sc2ccc(Cl)c(Cl)c2)nn1 [Compound 15a]", 0.182],
  ["Cn1c(CO[C@H]2[C@@H](O)[C@@H](CO)O[C@H](Sc3ccc(Cl)c(Cl)c3)[C@@H]2OCC2CCCCC2)nc2ccc(C(=O)O)cc21", -0.926],
  ["Cn1c(CO[C@H]2[C@@H](O)[C@@H](CO)O[C@H](Sc3ccc(Cl)c(Cl)c3)[C@@H]2OCc2ccc(Cl)c(Cl)c2)nc2ccc(C(=O)O)cc21", -1.38],
  ["Cn1c(CO[C@H]2[C@@H](O)[C@@H](CO)O[C@H](Sc3ccc(Cl)c(Cl)c3)[C@@H]2OCc2cn(-c3ccccc3C(=O)O)nn2)nc2ccc(C(=O)O)cc21 [Compound 16a]", 1.26],
  ["CO[C@@H]1[C@@H](OCc2nc3ccc(C(=O)O)cc3n2C)[C@@H](O)[C@@H](CO)O[C@@H]1Sc1ccc(Cl)c(Cl)c1", 2.08],
  ["Cn1c(CO[C@H]2[C@@H](O)[C@@H](CO)O[C@H](Sc3ccc(Cl)c(Cl)c3)[C@@H]2OCc2cccc(Cl)c2)nc2ccc(C(=O)O)cc21", -0.422],
  ["Cn1c(CO[C@H]2[C@@H](O)[C@@H](CO)O[C@H](Sc3ccc(Cl)c(Cl)c3)[C@@H]2OCc2cn(-c3cccc(C(=O)O)c3)nn2)nc2ccc(C(=O)O)cc21 [Compound 16b]", 1.11],
  ["Cc1ccc(CO[C@@H]2[C@@H](OCc3nc4ccc(C(=O)O)cc4n3C)[C@@H](O)[C@@H](CO)O[C@@H]2Sc2ccc(Cl)c(Cl)c2)cc1", -0.259],
  ["C#CCO[C@@H]1[C@@H](OCc2nc3ccc(C(=O)O)cc3n2C)[C@@H](O)[C@@H](CO)O[C@@H]1Sc1ccc(Cl)c(Cl)c1", 2.01],
  ["Cn1c(CO[C@H]2[C@@H](O)[C@@H](CO)O[C@H](Sc3ccc(Cl)c(Cl)c3)[C@@H]2OCc2ccccc2)nc2ccc(C(=O)O)cc21", 0.382],
  ["Cc1cccc(CO[C@@H]2[C@@H](OCc3nc4ccc(C(=O)O)cc4n3C)[C@@H](O)[C@@H](CO)O[C@@H]2Sc2ccc(Cl)c(Cl)c2)c1", -0.257],
  ["Cn1c(CO[C@H]2[C@@H](O)[C@@H](CO)O[C@H](Sc3ccc(Cl)c(Cl)c3)[C@@H]2OCC(=O)O)nc2ccc(C(=O)O)cc21", 2.84],
  ["Cn1c(CO[C@H]2[C@@H](O)[C@@H](CO)O[C@H](Sc3ccc(Cl)c(Cl)c3)[C@@H]2OCC2CCC2)nc2ccc(C(=O)O)cc21", 0.593],
  ["COC(=O)c1ccc(-n2cc(CO[C@@H]3[C@@H](OCc4nc5ccc(C(=O)O)cc5n4C)[C@@H](O)[C@@H](CO)O[C@@H]3Sc3ccc(Cl)c(Cl)c3)nn2)cc1 [Compound 15c]", 0.109],
  ["Cn1c(CO[C@H]2[C@@H](O)[C@@H](CO)O[C@H](Sc3ccc(Cl)c(Cl)c3)[C@@H]2OCc2cn(-c3ccc(C(=O)O)cc3)nn2)nc2ccc(C(=O)O)cc21 [Compound 16c]", 0.888],
  ["Cn1c(CO[C@H]2[C@@H](O)[C@@H](CO)O[C@H](Sc3ccc(Cl)c(Cl)c3)[C@@H]2OCc2ccc(F)cc2)nc2ccc(C(=O)O)cc21", 0.203]
]}
